// data source = patent EP1254122B1

# Tested on: HeLa
# ASSAY: Inhibition of cell growth, HeLa cells
# Assay type: cell-based
# STUDY CONDITIONS: Homo sapiens, 72 h, 37°C, three days, evaluated by microscope against untreated reference cells, read-out: IC50-Wert (50%ige Hemmung des Zellwachstums in µg/ml)
QUANTITY NAME: IC50 (µg/mL)
Answer format: numeric, µg/mL implied, no suffix.

Incoming: If you can, please state the reported IC50 value of CC(C)NC(=O)Cc1nnc2ccccc2n1 .
Outgoing: 86

Incoming: If you can, please state the reported IC50 value of CCOC(=O)Cc1nnc2ccccc2n1 .
Outgoing: 378

Incoming: If you can, please state the reported IC50 value of COC(=O)Cc1nnc2ccccc2n1 .
Outgoing: 180

Incoming: If you can, please state the reported IC50 value of OC[C@@H](O)[C@@H](O)[C@H](O)c1nnc2ccccc2n1 .
Outgoing: 150
